Cited source for all entries: patent US20210260078A1

test: Plasma pharmacokinetics after intranasal (IN) administration; type: in vivo, Sprague Dawley® (SD) rats; conditions: Sprague-Dawley, rat, inhaled or intranasal; plasma, 0.5 mg/kg IN dose, mean
MEASURED_PROPERTY: AUC(0-t) (ng·h/mL)
Quick note: give the figure in ng·h/mL, leave out the unit.

Noted for CC(C)[C@@H](CC[C@@H](C)[C@H]1CC[C@H]2[C@@H]3[C@H](O)C[C@H]4C[C@@H](NCCCNCCCCNCCCN)CC[C@]4(C)[C@H]3CC[C@]12C)OS(=O)(=O)O : its AUC(0-t) reads 9370

====

Assay: Plasma pharmacokinetics after intranasal (IN) administration
Type: in vivo, Sprague Dawley® (SD) rats
Details: Sprague-Dawley, rat, inhaled or intranasal; plasma, 0.5 mg/kg IN dose, mean
Text: The purpose of this example was to evaluate the in vivo distribution and function of aminosterols, such as Aminosterol 1436 and squalamine, following intranasal administration. This experiment relates to the amount of drug needed to obtain a therapeutic result, based on an IN route of administration. The results described below detail that aminosterols such as Aminosterol 1436 act at the level of the hypothalamus following in vivo administration, regardless of the route of administration. […]
MEASURED_PROPERTY: Cmax (ng/mL)
Form entry: value (ng/mL) — number only.

response.value for CC(C)[C@@H](CC[C@@H](C)[C@H]1CC[C@H]2[C@@H]3[C@H](O)C[C@H]4C[C@@H](NCCCNCCCCNCCCN)CC[C@]4(C)[C@H]3CC[C@]12C)OS(=O)(=O)O (field: Cmax) = 1680
